Molecular target: T1, human GPRC5D (human, UniProt Q9NZD1 1-345)
T1 construct: on transfected HEK293 or RBL cells, or endogenous on MM1R, H929, OPM2, LP-1, JIM3 and patient plasma cells; also called G-protein coupled receptor family C group 5 member D; hGPRC5D
T1 sequence (Q9NZD1 whole entry): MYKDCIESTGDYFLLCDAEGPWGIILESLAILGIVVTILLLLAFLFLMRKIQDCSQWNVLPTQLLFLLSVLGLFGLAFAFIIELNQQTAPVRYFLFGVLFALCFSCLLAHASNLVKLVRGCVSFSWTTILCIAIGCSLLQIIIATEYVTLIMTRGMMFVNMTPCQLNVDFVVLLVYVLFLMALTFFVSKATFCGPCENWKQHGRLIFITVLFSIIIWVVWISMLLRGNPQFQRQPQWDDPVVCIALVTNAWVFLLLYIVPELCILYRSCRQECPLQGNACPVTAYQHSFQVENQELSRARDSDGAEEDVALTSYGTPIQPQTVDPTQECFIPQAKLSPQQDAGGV
Assay: FACS, human GPRC5D cells
ENDPOINT NAME: binding result

GC5B482 (antibody, V domains shown, GC5B164 PTM variant, Hc GC5H267) VH: EVQLVQSGAEVKKPGESLKISCKGSGYSFTSYVIGWVRQMPGKGLEWMGIIYPGKSDTRYSPSFQGQVTISADKSISTAYLQWSSLKASDTAMYYCARVYSFGGRHKALFDYWGQGTLVTVSS VL: EIVLTQSPATLSLSPGERATLSCRASQSVSSYLAWYQQKPGQAPRLLIYDASNRATGIPARFSGSGSGTDFTLTISSLEPEDFAVYYCQQRSNWPLTFGQGTKVEIK | binds
GC5B484 (antibody, V domains shown, GC5B164 PTM variant, Hc GC5H265) VH: EVQLVQSGAEVKKPGESLKISCKGSGYSFTSYGIGWVRQMPGKGLEWMGIIYPGKSDTRYSPSFQGQVTISADKSISTAYLQWSSLKASDTAMYYCARVYSFGGRHKALFDYWGQGTLVTVSS VL: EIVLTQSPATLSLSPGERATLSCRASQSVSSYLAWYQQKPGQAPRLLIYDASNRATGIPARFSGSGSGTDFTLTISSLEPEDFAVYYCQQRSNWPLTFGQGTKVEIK | binds
GC5B474 (antibody, V domains shown, GC5B164 PTM variant, Hc GC5H275) VH: EVQLVQSGAEVKKPGESLKISCKGSGYSFTSYGIGWVRQMPGKGLEWMGIIYPGASDTRYSPSFQGQVTISADKSISTAYLQWSSLKASDTAMYYCARVYSFGGRHKALFDYWGQGTLVTVSS VL: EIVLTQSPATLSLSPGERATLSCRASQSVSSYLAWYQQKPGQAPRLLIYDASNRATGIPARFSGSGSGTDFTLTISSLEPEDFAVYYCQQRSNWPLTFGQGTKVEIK | binds

Where do the numbers come from? From patent US20230227548A1.
